# Read-out: Forkhead box O1 (FOXO1), FOXO1 (gene 2308)
# assay remarks: LTEA_HepaRG_FOXO1: Life Technologies and Expression Analysis (LTEA) Assay for Forkhead box O1 (FOXO1) using HepaRG (AID 2283456)
# condition label: mRNA level, 48 h; actives raise or lower the signal
Activity calls are given as the source filed them. How the source made its calls: active means hit-call score of the fitted dose curve at least 0.9, where 1 is the maximum; inactive means score below 0.9.
Permitted responses: TRUE = active, FALSE = inactive

What outcome does the record of this test show for `Nc1ccc(Cl)cc1` ?
FALSE

What outcome does the record of this test show for `CCCCCCCc1ccc(O)cc1` ?
FALSE

What outcome does the record of this test show for `Cc1cccc(N)c1` ?
FALSE

What outcome does the record of this test show for `CCNc1nc(Cl)nc(NC(C)(C)C)n1` ?
FALSE

What outcome does the record of this test show for O=P1(N(CCCl)CCCl)NCCCO1 (stereo not given) ?
FALSE

What outcome does the record of this test show for `CC(C)(C)OOC(C)(C)C` ?
FALSE

What outcome does the record of this test show for `O=[N+]([O-])c1ccc(Cl)c(Cl)c1` ?
FALSE

What outcome does the record of this test show for `[N-]=[N+]=[N-]` ?
TRUE

What outcome does the record of this test show for `CC(Cl)(Cl)C(=O)O` ?
FALSE

What outcome does the record of this test show for CC(Cc1ccc(OCC(=O)O)cc1)NCC(O)c1csc(C(F)(F)F)n1 (stereo not given) ?
FALSE

---

# assay remarks: CCTE_Shafer_MEA_acute_spike_number: CCTE's Neural Acute Assay for Total Number of Spikes, Shafer Lab (AID 2284008)
Active and inactive are the calls of the source. The calls were made as follows: active = hit-call score of the fitted dose curve at least 0.9, where 1 is the maximum; inactive = score below 0.9.
Permitted responses: Y (active), N (inactive)

>>> df
          compound  assigned_class
0  Nc1ccc2ccccc2c1               Y

What outcome does the record of this test show for ClC1=C(Cl)C2(Cl)C3C(Cl)C(Cl)CC3C1(Cl)C2(Cl)Cl (stereo not drawn) ?
N

What outcome does the record of this test show for `ClC(Cl)(Cl)c1ccccc1` ?
N

What outcome does the record of this test show for `COP(=O)(CCC(=O)NCO)OC` ?
N

What outcome does the record of this test show for CCCCC(CC)COP(=O)(Oc1ccccc1)Oc1ccccc1 (stereo not drawn) ?
Y

What outcome does the record of this test show for `CC(C)(C)c1ccccc1OP(=O)(Oc1ccccc1)Oc1ccccc1` ?
Y

What outcome does the record of this test show for `COCCOCCO` ?
N

What outcome does the record of this test show for `c1ccc2c(c1)Nc1ccccc1S2` ?
Y

---

# tested target: CCAAT/enhancer-binding protein beta (Homo sapiens) (UniProt P17676)
# Sequence (P17676 whole entry, looked up): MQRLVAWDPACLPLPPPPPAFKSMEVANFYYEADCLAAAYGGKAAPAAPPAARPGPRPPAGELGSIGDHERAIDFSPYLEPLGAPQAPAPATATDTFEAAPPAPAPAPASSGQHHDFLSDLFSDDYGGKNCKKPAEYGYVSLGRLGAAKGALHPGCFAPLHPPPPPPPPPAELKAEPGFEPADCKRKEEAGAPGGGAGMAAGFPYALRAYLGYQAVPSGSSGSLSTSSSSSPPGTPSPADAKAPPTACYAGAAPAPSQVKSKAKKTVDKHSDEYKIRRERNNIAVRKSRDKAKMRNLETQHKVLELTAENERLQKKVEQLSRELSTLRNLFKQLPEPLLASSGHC
# assay remarks: ATG_C_EBP_CIS: Attagene CIS-FACTORIAL HepG2 Assay for human CCAAT/Enhancer Binding Protein (C/EBP) beta (AID 2282927)
# condition label: HepG2 Attagene cis-factorial transcription factor reporter; actives raise or lower the signal
Activity calls are given as the source filed them. How the source made its calls: active means hit-call score of the fitted dose curve at least 0.9, where 1 is the maximum; inactive means score below 0.9.
readout name: outcome

>>> print(df.to_string())
                                   molecule    result
0                             O=C(O)C(Cl)Cl  inactive
1                N#Cc1cc([N+](=O)[O-])ccc1N  inactive
2                           Nc1ccc2ccccc2c1  inactive
3                              COP(N)(=S)OC  inactive
4  Cc1cc(C)c(C(=O)P(=O)(c2ccccc2)c2ccccc2)c(C)c1  inactive

Return reported outcome; argument: O=S1(=O)OCC2C(CO1)C1(Cl)C(Cl)=C(Cl)C2(Cl)C1(Cl)Cl (centres undefined)
inactive

Return reported outcome; argument: `CCOP(=S)(S)OCC`
inactive

Return reported outcome; argument: `COC(N)=O`
inactive

Return reported outcome; argument: `Oc1ccc(I)cc1`
inactive

Return reported outcome; argument: CCC1(c2ccccc2)C(=O)N=C(O)NC1=O (centres undefined)
inactive

Return reported outcome; argument: `c1ccc(OP(Oc2ccccc2)Oc2ccccc2)cc1`
inactive

Return reported outcome; argument: OCC1CO1 (centres undefined)
inactive

---

# Read-out: Collagen I, COL1A1 (gene 1277)
# assay remarks: BSK_MyoF_CollagenI: BioMAP Diversity Plus: MyoF Assay for Collagen I Biomarker Activity (AID 2284238)
# condition label: primary human lung fibroblasts
Activity calls are given as the source filed them. How the source made its calls: active means hit-call score of the fitted dose curve at least 0.9, where 1 is the maximum; inactive means score below 0.9.
Permitted responses: active, inactive

>>> df
                                   compound  assigned_class
0  Cc1c([N+](=O)[O-])cc2c(c1[N+](=O)[O-])C(C)(C)CC2(C)C        inactive

What outcome does the record of this test show for `O=S(=O)(F)C(F)(F)C(F)(F)C(F)(F)C(F)(F)C(F)(F)C(F)(F)C(F)(F)C(F)(F)F` ?
inactive

What outcome does the record of this test show for CC(Cl)CN(C)C (configuration not stated) ?
inactive

What outcome does the record of this test show for `CC(C)Nc1ccc(Nc2ccccc2)cc1` ?
active

What outcome does the record of this test show for O=P(OCC(Br)CBr)(OCC(Br)CBr)OCC(Br)CBr (configuration not stated) ?
inactive

What outcome does the record of this test show for CCCCC(CC)COP(=O)(Oc1ccccc1)Oc1ccccc1 (configuration not stated) ?
active

What outcome does the record of this test show for O=C(O)C(F)(OC(F)(F)C(F)(F)C(F)(F)F)C(F)(F)F (configuration not stated) ?
inactive

What outcome does the record of this test show for `COP(N)(=S)OC` ?
inactive

What outcome does the record of this test show for `O=C(O)C(F)(F)OC(F)(F)C(F)(F)OC(F)(F)C(=O)O` ?
inactive

What outcome does the record of this test show for `O=C(O)C=CC(F)(C(F)(F)F)C(F)(F)F` ?
inactive

What outcome does the record of this test show for `O=c1ssc(Cl)c1Cl` ?
active

What outcome does the record of this test show for CCCCC(CC)COC(=O)c1c(Br)c(Br)c(Br)c(Br)c1C(=O)OCC(CC)CCCC (configuration not stated) ?
inactive

---

# assay remarks: APR_HepG2_StressKinase_24hr: Apredica 24-hour HepG2 Assay for Stress Kinase (AID 2282922)
# condition label: HepG2 stress kinase (phospho-c-Jun) imaging, actives raise or lower the signal
The source made the active and inactive calls. How the source made its calls: active means hit-call score of the fitted dose curve at least 0.9, where 1 is the maximum; inactive means score below 0.9.
Permitted responses: active, inactive

               compound  assigned_class
0   ClC(Cl)(Cl)c1ccccc1        inactive
1  O=[N+]([O-])c1ccccc1        inactive

What outcome does the record of this test show for CC(Cc1ccc(OCC(=O)O)cc1)NCC(O)c1csc(C(F)(F)F)n1 (stereo unspecified) ?
inactive

What outcome does the record of this test show for `O=[N+]([O-])c1ccc(Cl)c(Cl)c1` ?
inactive

What outcome does the record of this test show for `CCOP(=S)(OCC)SCSCC` ?
inactive

What outcome does the record of this test show for `Nc1ccc(Cl)cc1` ?
inactive

What outcome does the record of this test show for `Cc1ccc(N)cc1N` ?
inactive

What outcome does the record of this test show for `c1cc2c3c(cccc3c1)CC2` ?
inactive

What outcome does the record of this test show for `Nc1ccc2ccccc2c1` ?
inactive

What outcome does the record of this test show for `CCNc1nc(Cl)nc(NC(C)(C)C)n1` ?
inactive

What outcome does the record of this test show for `Cc1ccc([N+](=O)[O-])cc1C` ?
inactive

What outcome does the record of this test show for `CCOS(=O)(=O)OCC` ?
inactive

What outcome does the record of this test show for CCOP(=S)(Oc1ccc([N+](=O)[O-])cc1)c1ccccc1 (stereo unspecified) ?
inactive

What outcome does the record of this test show for `c1ccc(OP(Oc2ccccc2)Oc2ccccc2)cc1` ?
inactive

What outcome does the record of this test show for `O=P(Oc1ccccc1)(Oc1ccccc1)Oc1ccccc1` ?
inactive

What outcome does the record of this test show for CCC1(c2ccccc2)C(=O)N=C(O)NC1=O (stereo unspecified) ?
inactive

What outcome does the record of this test show for `CN(C)C(=O)Cl` ?
inactive

---

# tested target: Androgen Receptor/SRC-1 Co-activator, AR (gene 367) (UniProt P10275)
# Sequence (P10275 whole entry, looked up): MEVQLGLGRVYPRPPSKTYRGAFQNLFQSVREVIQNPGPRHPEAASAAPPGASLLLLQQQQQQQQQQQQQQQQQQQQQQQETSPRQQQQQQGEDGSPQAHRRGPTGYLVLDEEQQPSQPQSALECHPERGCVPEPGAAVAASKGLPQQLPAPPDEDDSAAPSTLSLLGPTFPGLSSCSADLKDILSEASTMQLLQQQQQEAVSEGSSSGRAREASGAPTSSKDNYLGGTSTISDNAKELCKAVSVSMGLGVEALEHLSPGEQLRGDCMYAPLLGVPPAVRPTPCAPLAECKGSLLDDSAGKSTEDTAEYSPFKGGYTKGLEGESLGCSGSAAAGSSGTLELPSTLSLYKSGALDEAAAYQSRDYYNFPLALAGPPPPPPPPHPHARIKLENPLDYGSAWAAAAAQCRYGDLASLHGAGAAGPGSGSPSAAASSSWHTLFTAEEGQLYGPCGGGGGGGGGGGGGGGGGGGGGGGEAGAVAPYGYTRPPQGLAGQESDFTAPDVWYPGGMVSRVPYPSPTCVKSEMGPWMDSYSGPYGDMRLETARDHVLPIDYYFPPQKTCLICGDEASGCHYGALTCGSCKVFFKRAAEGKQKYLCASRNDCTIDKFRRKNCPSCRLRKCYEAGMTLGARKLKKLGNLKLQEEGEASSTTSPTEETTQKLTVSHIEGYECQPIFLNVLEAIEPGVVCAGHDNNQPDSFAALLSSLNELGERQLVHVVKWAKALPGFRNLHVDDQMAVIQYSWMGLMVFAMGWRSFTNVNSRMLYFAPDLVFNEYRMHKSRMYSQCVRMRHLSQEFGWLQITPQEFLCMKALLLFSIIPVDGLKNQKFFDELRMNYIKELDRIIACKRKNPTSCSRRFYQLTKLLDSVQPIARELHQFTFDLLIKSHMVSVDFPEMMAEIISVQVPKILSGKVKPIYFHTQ
# assay remarks: OT_AR_ARSRC1_0960: Odyssey Thera (OT) 16-hour HEK293T Protein-Complementation Assay for Androgen Receptor/SRC-1 Co-activator (AID 2283353);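 further: actives raise the signal above DMSO so potency reflects increased AR and SRC-1 complex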
Activity calls are given as the source filed them. Rule for the calls: active = hit-call score of the fitted dose curve at least 0.9, where 1 is the maximum; inconclusive = response in the unintended direction; inactive = score below 0.9.
readout name: AC50

Check out these entries, answers already filled in.
>>> df
                                   molecule  readout_name            result
0                CCNc1nc(Cl)nc(NC(C)(C)C)n1          AC50          inactive
1  CC(C)(C)N(NC(=O)c1ccc(Cl)cc1)C(=O)c1ccccc1          AC50          inactive
2  O=P(OCC(Br)CBr)(OCC(Br)CBr)OCC(Br)CBr (stereo not given)          AC50  26.7 µM (active)
3  ClC1=C(Cl)C2(Cl)C3C(Cl)C(Cl)CC3C1(Cl)C2(Cl)Cl (stereo not given)          AC50  38.1 µM (active)

Return reported AC50; argument: `c1cc2c3c(cccc3c1)CC2`
inactive
